TESTED ON: Peroxisome proliferator-activated receptor gamma (Homo sapiens, UniProt P37231)
Sequence (P37231 whole entry): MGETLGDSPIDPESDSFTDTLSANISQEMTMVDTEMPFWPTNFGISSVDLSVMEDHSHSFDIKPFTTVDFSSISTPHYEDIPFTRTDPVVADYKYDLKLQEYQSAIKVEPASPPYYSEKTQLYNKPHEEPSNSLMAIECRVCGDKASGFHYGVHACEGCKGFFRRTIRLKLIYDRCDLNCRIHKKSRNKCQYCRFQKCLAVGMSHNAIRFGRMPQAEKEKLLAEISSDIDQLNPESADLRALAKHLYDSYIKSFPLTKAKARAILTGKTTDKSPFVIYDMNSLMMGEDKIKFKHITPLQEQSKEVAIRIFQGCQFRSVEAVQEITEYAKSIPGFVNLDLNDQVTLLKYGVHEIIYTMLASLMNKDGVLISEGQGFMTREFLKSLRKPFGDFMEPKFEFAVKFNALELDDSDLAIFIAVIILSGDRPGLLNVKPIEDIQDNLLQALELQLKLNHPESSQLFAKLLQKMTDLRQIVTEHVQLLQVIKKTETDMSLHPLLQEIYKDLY
MEASUREMENT DESCRIPTION: Transactivation of PPARgamma (unknown origin)
pEC50: −log10 of the molar value.
PROPERTY NAME: pEC50

COc1cc(N2CC[C@@H](Oc3ccc(N4C[C@H](F)[C@@H](OC)[C@@H]4CC(=O)O)cc3)[C@H](C)C2)c(Cl)cn1 | < 4.32
CCOc1ccc(F)c(N2CC[C@@H](Oc3ccc(N4C[C@H](OC)C[C@@H]4CC(=O)O)cc3)[C@H](C)C2)c1 | 4.92
CCOc1ccc(F)c(N2CCC(Oc3ccc(N4C[C@H](Oc5cccc(OC)c5)C[C@@H]4CC(=O)O)cc3)CC2)c1 | < 4.33
COc1ccc(F)c(N2CCC(Oc3ccc(N4CCC[C@@H]4CC(=O)O)cc3)CC2)c1 | < 4.30
COc1ccc(F)c(N2CCC(Oc3ccc(N4CCC[C@H]4CC(=O)O)cc3)CC2)c1 | < 4.30
CCOc1ccc(F)c(N2CC[C@@H](Oc3ccc(N4C[C@H](OC)[C@@H](C)[C@@H]4CC(=O)O)cc3)[C@H](C)C2)c1 | < 4.32
CCOc1ccc(F)c(N2CC[C@@H](Oc3ccc(N4C[C@H](C(F)(F)F)C[C@@H]4CC(=O)O)cc3)[C@H](C)C2)c1 | < 4.32
COc1cc(N2CC[C@@H](Oc3ccc(N4CC[C@@H](C)[C@@H]4CC(=O)O)cc3)[C@H](C)C2)c(Cl)cn1 | < 4.32

// query Item `COc1cc(N2CC[C@@H](Oc3ccc(N4C[C@H](F)[C@@H](C)[C@@H]4CC(=O)O)cc3)[C@H](C)C2)c(Cl)cn1` has what recorded pEC50?
// result < 4.32

// query Item `CCOc1ccc(F)c(N2CC[C@@H](Oc3ccc(N4C[C@H](OCCCOC)[C@@H](C)[C@@H]4CC(=O)O)cc3)[C@H](C)C2)c1` has what recorded pEC50?
// result < 4.33

// query Item `CCOc1ccc(F)c(N2CCC(Oc3ccc(N4C[C@H](Oc5ccccc5)C[C@@H]4CC(=O)O)cc3)CC2)c1` has what recorded pEC50?
// result < 4.33
